test system: mutant A1408G E. coli ribosomes; assay: EF-G-dependent translocation inhibition; type: biochemical; conditions: read-out: Translocation inhibition IC50, A1408G
Can you tell me pIC50 for the items I'm about to list?
Answers are plain numbers, as −log10 of the molar value.

Example entries begin here.
* NC[C@H]1O[C@H](O[C@H]2[C@H](O)[C@@H](O[C@H]3O[C@H](CSc4ccccc4F)[C@@H](O)[C@H](N)[C@H]3O)[C@H](N)C[C@@H]2N)[C@H](N)C[C@@H]1O [3x] | 3.51
* COc1ccccc1SC[C@H]1O[C@H](O[C@@H]2[C@@H](O)[C@H](O[C@H]3O[C@H](CN)[C@@H](O)C[C@H]3N)[C@@H](N)C[C@H]2N)[C@H](O)[C@@H](N)[C@@H]1O [3u] | 3.21
* NC[C@H]1O[C@H](O[C@H]2[C@H](O)[C@@H](O[C@H]3O[C@H](CO)[C@@H](O)[C@H](N)[C@H]3O)[C@H](N)C[C@@H]2N)[C@H](N)C[C@@H]1O [TOB, tobramycin] | 3.15

Give its pIC50 value. Item: NCC1OC(OC2C(N)CC(N)C(OC3OC(CSc4cccc(F)c4)C(O)C(N)C3O)C2O)C(N)CC1O (stereo not shown) [3y]
3.68

Source listed as paper PMC4548982.
